Field: MIC. Provide a value for each of the compounds that follow.
# Tested on: Escherichia coli
# assay.method.text: Antibacterial activity against Escherichia coli AG102
# Assay type: functional
Give the value, in units of µg/mL, as a plain number.

Item: O=C(Cc1ccc(F)cc1)Nc1ccc(-c2nc3ccccc3s2)cc1 | MIC: 128

Item: O=C(Nc1ccc(Cc2nc3ccccc3s2)cc1)c1ccccc1 | MIC: 256

Item: O=C(Nc1ccc(-c2nc3ccccc3s2)cc1)c1ccccc1 | MIC: 256

Item: CCCCOc1ccc(C(=O)Nc2ccc(-c3nc4ccccc4s3)cc2)cc1 | MIC: 64

Item: COc1ccc(CC(=O)Nc2ccc(-c3nc4ccccc4s3)cc2)cc1 | MIC: 256

Item: O=C(Nc1ccc(Cc2nc3ccccc3s2)cc1)c1ccc(Br)cc1 | MIC: 128

Item: O=C(Cc1ccc(F)cc1)Nc1ccc(Cc2nc3ccccc3s2)cc1 | MIC: 256

Item: O=C(CCCCc1ccccc1)Nc1ccc(-c2nc3ccccc3s2)cc1 | MIC: 512

Item: O=C(Nc1ccc(Cc2nc3ccccc3s2)cc1)c1ccc([N+](=O)[O-])cc1 | MIC: 128

Item: O=C(Cc1ccccc1)Nc1ccc(-c2nc3ccccc3s2)cc1 | MIC: 256

Item: CCc1ccc(C(=O)Nc2ccc(Cc3nc4ccccc4s3)cc2)cc1 | MIC: 64
